# pest or weed control at 250 g/ha annotations
Tested on: Lolium perenne (LOLPE)
assay_name: Post-emergence herbicidal activity, glasshouse pot test
Assay type: in vivo
test_conditions: Lolium perenne, 312 h, rate 250 g/ha, evaluated after 13 days, 100=total damage to plant, 0=no damage to plant

molecule | pest or weed control at 250 g/ha (%)
Cc1cc(Oc2ccc(Br)cc2)cc(C)c1C1=C(O)[C@H]2[C@@H](C1=O)[C@@H]1CC[C@H]2O1 | 90
CCc1cc(Oc2ccc(Cl)cc2)ccc1C1=C(O)[C@H]2[C@@H](C1=O)[C@@H]1CC[C@H]2O1 | 80
Cc1cc(Oc2cnc3cc(Cl)ccc3n2)cc(C)c1C1=C(O)[C@H]2[C@H]3CC[C@H](C3)[C@H]2C1=O | 0
Cc1cc(Oc2ccc(Cl)cc2)cc(C)c1C1=C(O)CC(CC2CCOCC2)C1=O (stereo not shown) | 70
Cc1cc(Oc2cnc3cc(Cl)ccc3n2)cc(C)c1C1=C(O)C2C(C1=O)[C@H]1CC[C@@H]2CC1 (stereo partly shown) | 0
Cc1cc(Oc2ccc(Cl)cc2)cc(C)c1C1=C(OC(=O)C(C)(C)C)[C@H]2[C@@H](C1=O)[C@@H]1CC[C@H]2O1 | 100
Cc1cc(Oc2ncc(Cl)cc2F)cc(C)c1C1=C(O)C2C(C1=O)[C@H]1CC[C@@H]2CC1 (stereo partly shown) | 30

---

System: Lolium perenne (LOLPE)
assay_name: Post-emergence herbicidal activity, glasshouse pot test
Assay type: in vivo
test_conditions: Lolium perenne, 312 h, rate 250 g/ha, evaluated after 13 days, 100=total damage to plant, 0=no damage to plant
Is pest or weed control at 250 g/ha at least 70%? Then 1. If not, 0.

smiles_string | qualitative_label
CCc1cc(Oc2ccc3cc(Cl)ccc3n2)ccc1C1=C(O)CCC1=O | 0
Cc1cc(Oc2ccccc2Cl)cc(C)c1C1=C(O)[C@H]2[C@@H](C1=O)[C@@H]1CC[C@H]2O1 | 0
Cc1cc(Oc2ncc(Cl)cc2F)cc(C)c1C1=C(O)[C@H]2[C@@H](C1=O)[C@@H]1CC[C@H]2O1 | 1
CCc1cc(Oc2ccc3cc(Cl)ccc3n2)ccc1C1=C(O)[C@H]2[C@@H](C1=O)[C@@H]1CC[C@H]2O1 | 1
Cc1cc(Oc2ccc(C(F)(F)F)cn2)cc(C)c1C1=C(O)[C@H]2[C@H]3CC[C@H](C3)[C@H]2C1=O | 0
Cc1cc(Oc2cc(F)ccc2F)cc(C)c1C1=C(O)[C@H]2[C@@H](C1=O)[C@@H]1CC[C@H]2O1 | 0
CCc1cc(Oc2ccc(Cl)cc2)ccc1C1=C(O)CCC1=O | 0
Cc1cc(Oc2ccc(F)cc2)cc(C)c1C1=C(O)[C@H]2[C@@H](C1=O)[C@@H]1CC[C@H]2O1 | 1
Cc1cc(Oc2ccc(Cl)cc2F)cc(C)c1C1=C(O)[C@H]2[C@@H](C1=O)[C@@H]1CC[C@H]2O1 | 1
Cc1cc(Br)ccc1Oc1cc(C)c(C2=C(O)[C@H]3[C@@H](C2=O)[C@@H]2CC[C@H]3O2)c(C)c1 | 0
Cc1cc(Oc2ncc(Cl)cc2Cl)cc(C)c1C1=C(O)[C@H]2[C@@H](C1=O)[C@@H]1CC[C@H]2O1 | 1

---

Tested on: Lolium perenne (LOLPE)
assay_name: Post-emergence herbicidal activity, glasshouse pot test
Type: in vivo
test_conditions: Lolium perenne, 312 h, rate 250 g/ha, evaluated after 13 days, 100=total damage to plant, 0=no damage to plant

compound | pest or weed control at 250 g/ha
Cc1cc(Oc2ccc(C(F)(F)F)cn2)cc(C)c1C1=C(O)C2C(C1=O)[C@H]1CC[C@@H]2CC1 (stereo partly drawn) | 0%
Cc1cc(Oc2ccc(F)cc2F)cc(C)c1C1=C(O)[C@H]2[C@@H](C1=O)[C@@H]1CC[C@H]2O1 | 70%
Cc1cc(Oc2ccc(Cl)cc2)cc(C)c1C1=C(O)[C@H]2[C@@H](C1=O)[C@@H]1CC[C@H]2O1 | 100%
Cc1cc(Oc2cccc(Cl)c2)cc(C)c1C1=C(O)[C@H]2[C@@H](C1=O)[C@@H]1CC[C@H]2O1 | 70%
Cc1cc(Oc2cccc(F)c2F)cc(C)c1C1=C(O)[C@H]2[C@@H](C1=O)[C@@H]1CC[C@H]2O1 | 80%
Cc1cc(Oc2ccc3cc(Cl)ccc3n2)cc(C)c1C1=C(O)CC(CC2CCOCC2)C1=O (stereo not drawn) | 40%
Cc1cc(Oc2ccc(Br)cc2F)cc(C)c1C1=C(O)[C@H]2[C@@H](C1=O)[C@@H]1CC[C@H]2O1 | 90%
Cc1cc(Oc2ncc(Cl)cc2F)cc(C)c1C1=C(O)[C@H]2[C@H]3CC[C@H](C3)[C@H]2C1=O | 10%
Cc1cc(Oc2ccccc2F)cc(C)c1C1=C(O)[C@H]2[C@@H](C1=O)[C@@H]1CC[C@H]2O1 | 70%

---

Tested on: Alopecurus myosuroides (ALOMY)
assay_name: Post-emergence herbicidal activity, glasshouse pot test
Assay type: in vivo
test_conditions: Alopecurus myosuroides, 312 h, rate 250 g/ha, evaluated after 13 days, 100=total damage to plant, 0=no damage to plant
// returns rule not met unless pest or weed control at 250 g/ha is strictly below 70%, in which case rule met

compound | test_system | qualitative_label
Cc1cc(Oc2ccc(F)cc2F)cc(C)c1C1=C(O)[C@H]2[C@@H](C1=O)[C@@H]1CC[C@H]2O1 | Alopecurus myosuroides (ALOMY) | rule not met
Cc1cc(Oc2ccc(Cl)cc2)cc(C)c1C1=C(O)[C@H]2[C@@H](C1=O)[C@@H]1CC[C@H]2O1 | Alopecurus myosuroides (ALOMY) | rule not met
Cc1cc(Oc2cccc(F)c2F)cc(C)c1C1=C(O)[C@H]2[C@@H](C1=O)[C@@H]1CC[C@H]2O1 | Alopecurus myosuroides (ALOMY) | rule not met
Cc1cc(Oc2ccc(F)cc2)cc(C)c1C1=C(OC(=O)C(C)(C)C)[C@H]2[C@@H](C1=O)[C@@H]1CC[C@H]2O1 | Alopecurus myosuroides (ALOMY) | rule not met
Cc1cc(Oc2ccc(Br)cc2F)cc(C)c1C1=C(O)[C@H]2[C@@H](C1=O)[C@@H]1CC[C@H]2O1 | Alopecurus myosuroides (ALOMY) | rule not met
CCc1cc(Oc2ccc3cc(Cl)ccc3n2)ccc1C1=C(O)CCC1=O | Alopecurus myosuroides (ALOMY) | rule met
Cc1cc(Oc2ccc(Cl)cc2)cc(C)c1C1=C(OC(=O)C(C)(C)C)[C@H]2[C@@H](C1=O)[C@@H]1CC[C@H]2O1 | Alopecurus myosuroides (ALOMY) | rule not met
Cc1cc(Oc2ccc(Br)cc2)cc(C)c1C1=C(O)[C@H]2[C@@H](C1=O)[C@@H]1CC[C@H]2O1 | Alopecurus myosuroides (ALOMY) | rule not met
Cc1cc(Oc2ncc(Cl)cc2F)cc(C)c1C1=C(O)[C@H]2[C@H]3CC[C@H](C3)[C@H]2C1=O | Alopecurus myosuroides (ALOMY) | rule met
Cc1cc(Oc2ccc(F)cc2)cc(C)c1C1=C(O)[C@H]2[C@@H](C1=O)[C@@H]1CC[C@H]2O1 | Alopecurus myosuroides (ALOMY) | rule not met
Cc1cc(Oc2ccc(Cl)cc2F)cc(C)c1C1=C(O)[C@H]2[C@@H](C1=O)[C@@H]1CC[C@H]2O1 | Alopecurus myosuroides (ALOMY) | rule not met
Cc1cc(Oc2ccc(C(F)(F)F)cn2)cc(C)c1C1=C(O)[C@H]2[C@H]3CC[C@H](C3)[C@H]2C1=O | Alopecurus myosuroides (ALOMY) | rule met
Cc1cc(Oc2ncc(Cl)cc2F)cc(C)c1C1=C(O)[C@H]2[C@@H](C1=O)[C@@H]1CC[C@H]2O1 | Alopecurus myosuroides (ALOMY) | rule not met
Cc1cc(Oc2ncc(Cl)cc2F)cc(C)c1C1=C(O)C2C(C1=O)[C@H]1CC[C@@H]2CC1 (stereo partly shown) | Alopecurus myosuroides (ALOMY) | rule met

---

# pest or weed control at 250 g/ha annotations
Test system: Lolium perenne (LOLPE)
assay_name: Post-emergence herbicidal activity, glasshouse pot test
Format: in vivo
test_conditions: Lolium perenne, 312 h, rate 250 g/ha, evaluated after 13 days, 100=total damage to plant, 0=no damage to plant

smiles_string | value_unit | pest or weed control at 250 g/ha
CCc1cc(Oc2ccc(Br)cc2F)ccc1C1=C(O)[C@H]2[C@@H](C1=O)[C@@H]1CC[C@H]2O1 | % | 70
Cc1cc(Oc2ccc(F)cc2)cc(C)c1C1=C(OC(=O)C(C)(C)C)[C@H]2[C@@H](C1=O)[C@@H]1CC[C@H]2O1 | % | 70
Cc1cc(Oc2ccc(Br)cc2Cl)cc(C)c1C1=C(O)[C@H]2[C@@H](C1=O)[C@@H]1CC[C@H]2O1 | % | 70
